Test: Redox Reaction Profiling qHTS: Assay Interference Panel against the NCATS CANVASS Library (AID 1347401)
Details: resazurin-DTT redox cycling, fluorescence, 15 min; series mostly up to 57.1 µM
Description: Natural products and their derivatives continue to be wellsprings of nascent therapeutic potential. […] To address this issue, the Canvass library of natural products was assembled (https://tripod.nih.gov/canvass), in collaboration with academic and industry researchers, for quantitative high-throughput screening (qHTS) across a diverse set of cell-based and biochemical assays. […]
Results filed as inconclusive are left out. Activity calls are given as the source filed them. Calls come from the whole dose curve; as a rule, active = well fitted activation curve with a large enough effect; inconclusive = small, poorly fitted or top-dose-only effect; inactive = no such curve, though single readings can be large or run the other way.
Pick one and only one: active, inactive

Solved entries:
CN1CCc2cc3c(c4c2[C@H]1[C@@H](O)c1ccccc1-4)OCO3    active
CC1(C)[C@H](Br)CC[C@]23C[C@]4(C)C(=O)CC12C[C@H]34    inactive
OCc1ccc2ocnc2c1    inactive
CCCCCCC[C@@H](C/C=C/CCC(=O)NCCc1c[nH]c2ccccc12)OC    inactive
C[C@@H]1C(=O)[C@]23CC[C@H]1C[C@]21O[C@H]2C(C)(C)C=CC(=O)[C@]23COC1=O    inactive

Now turn to the next molecule.
For C=C[C@]1(C)CC[C@@H]([C@H](C)C(=O)OCC)O1 , which call appears in the assay record?
inactive

----------
target: Cytochrome P450 1A2 (Homo sapiens) (UniProt P05177); assay: p450-cyp1a2 (AID 410); settings: recombinant CYP1A2, luciferin-ME demethylation, luminescence; series mostly up to 57 µM
Sequence (P05177 whole entry, looked up): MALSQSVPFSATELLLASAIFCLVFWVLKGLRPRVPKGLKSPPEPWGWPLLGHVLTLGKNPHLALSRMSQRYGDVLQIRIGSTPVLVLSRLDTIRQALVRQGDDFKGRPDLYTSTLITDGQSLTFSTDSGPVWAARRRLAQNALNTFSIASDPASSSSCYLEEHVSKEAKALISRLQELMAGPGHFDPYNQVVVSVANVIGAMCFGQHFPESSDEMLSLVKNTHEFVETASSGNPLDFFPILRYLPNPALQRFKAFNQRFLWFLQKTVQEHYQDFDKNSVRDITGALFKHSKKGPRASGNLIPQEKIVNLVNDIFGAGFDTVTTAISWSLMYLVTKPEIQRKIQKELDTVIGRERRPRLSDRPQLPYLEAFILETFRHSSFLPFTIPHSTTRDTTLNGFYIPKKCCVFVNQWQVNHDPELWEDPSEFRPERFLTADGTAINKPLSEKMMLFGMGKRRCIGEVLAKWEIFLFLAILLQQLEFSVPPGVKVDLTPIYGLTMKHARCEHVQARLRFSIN
Results filed as inconclusive are left out. The source made the active and inactive calls. Calls come from the whole dose curve.
Pick one and only one: active, inactive

Solved entries:
COc1ccc2[nH]c(C(=O)c3ccccc3)cc2c1    active
CCOC(OCC)P(=O)(O)CCCNCc1ccc(Cl)c(Cl)c1    inactive
CCCCCCCCCCCCC/C=C\[C@@H](O)[C@H](CO)NC(C)=O    active
COc1ccc(/C=C\C(=O)Nc2ccccc2C(=O)O)cc1OC    inactive
CC(C)SC(=N)N    inactive

For CC(C)(C)Cn1nc(-c2ccc(Cl)cc2)c2c(N)ncnc21 , which call appears in the assay record?
active

----------
Target: Cytochrome P450 3A4 (Homo sapiens) (UniProt P08684)
Sequence (P08684 whole entry, looked up): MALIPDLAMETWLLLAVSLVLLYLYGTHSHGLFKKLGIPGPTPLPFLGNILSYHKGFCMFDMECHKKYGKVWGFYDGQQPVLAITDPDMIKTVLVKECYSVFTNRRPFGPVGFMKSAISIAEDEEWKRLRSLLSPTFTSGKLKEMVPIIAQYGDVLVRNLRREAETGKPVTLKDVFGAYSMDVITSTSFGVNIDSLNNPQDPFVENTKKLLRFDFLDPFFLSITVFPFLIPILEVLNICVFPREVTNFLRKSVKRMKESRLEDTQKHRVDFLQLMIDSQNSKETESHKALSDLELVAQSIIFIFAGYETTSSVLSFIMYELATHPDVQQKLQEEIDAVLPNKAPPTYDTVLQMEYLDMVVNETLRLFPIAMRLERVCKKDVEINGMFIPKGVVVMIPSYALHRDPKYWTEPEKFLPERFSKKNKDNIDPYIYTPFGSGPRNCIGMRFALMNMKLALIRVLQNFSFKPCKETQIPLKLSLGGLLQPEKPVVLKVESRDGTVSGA
Assay: qHTS Assay for Inhibitors and Substrates of Cytochrome P450 3A4 (AID 884); note: potency is the fitted concentration of half-maximal effect; nearly all actives have a fitted effect of over 50% in size
Details: recombinant CYP3A4, Luciferin-PPXE luminescence; series mostly up to 57.1 µM
Procedure: NIH Molecular Libraries Screening Centers Network [MLSCN] NIH Chemical Genomics Center [NCGC] The P450 gene superfamily is involved in the metabolism and clearance of xenobiotics. […] The luciferin is then measured by luminescence after the addition of a luciferase detection reagent. […] Inhibitors and some substrates limit the production of luciferin, and decrease measured luminescence. […]
Records with an inconclusive call do not appear. Activity calls are given as the source filed them. Calls come from the whole dose curve; as a rule, active = well fitted inhibition curve with a large enough effect; inconclusive = small, poorly fitted or top-dose-only effect; inactive = no such curve, though single readings can be large or run the other way.
Provide the recorded Potency for the entries that follow.

// below: answered compounds
c1ccc(N2CCN(CCCOc3ccc4c(c3)OCO4)CC2)cc1    3.16 µM (active)
COc1cc(CNC(=O)CCCC/C=C\C(C)C)ccc1O    3.98 µM (active)
C[C@@H](/C=C\c1cccc(Oc2ccc(F)cc2)c1)N(O)C(N)=O    1.26 µM (active)
CCCCCCC#Cc1cc(OC)c(OC)cc1C(N1CC(C)c2ccccc21)N1CC(C)c2ccccc21 (stereo unspecified)    3.16 µM (active)

Now look at this one.
Endpoint output: Potency of Cc1ccc(S(=O)(=O)n2c3ccccc3c3nnc(C(=O)c4ccccc4)nc32)cc1 . Value?
3.98 µM (active)
